From: paper PMC2577357

In this section, each of the binders is paired with its reported pKd.
- target: T1, MthRnl (Methanobacterium thermoautotrophicum ΔH, UniProt O27289 1-381)
- T1 sequence: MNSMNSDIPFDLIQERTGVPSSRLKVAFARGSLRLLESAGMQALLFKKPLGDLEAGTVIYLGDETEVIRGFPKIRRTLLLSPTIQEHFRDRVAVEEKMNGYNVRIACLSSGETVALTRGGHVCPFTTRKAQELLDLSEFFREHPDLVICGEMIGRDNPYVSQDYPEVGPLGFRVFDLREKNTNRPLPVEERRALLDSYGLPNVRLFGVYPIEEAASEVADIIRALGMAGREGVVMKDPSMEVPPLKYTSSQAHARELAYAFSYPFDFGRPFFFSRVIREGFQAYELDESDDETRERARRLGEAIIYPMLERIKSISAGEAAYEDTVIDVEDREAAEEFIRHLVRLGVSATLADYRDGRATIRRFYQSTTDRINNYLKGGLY
- assay name: EMSA
pKd: −log10 of the molar value.

In [3]: df
Out[3]:
                                     binder  assay_value
0  AUUCCGAUAGUGCGUGUCGCCCUU (ssRNA, 5'-phosphate) [pRNA 24-mer]        ~5.82

--- query ---
INPUT: Which pKd value is on record for ATTCCGATAGTGCGTGTCGCCCTT (ssDNA, 5'-phosphate) [pDNA 24-mer] ?
OUTPUT: ~5.70
